Reported melting point values for a set of molecules

The cases that follow already have their melting point on record.
| MOLECULE | QUANTITY_MEASURED | VALUE_REPORTED |
| --- | --- | --- |
| Fc1ccc2c(C3=CCN(CCC4OCCc5cc(Br)ccc54)CC3)c[nH]c2c1 (stereo not shown) | melting point | 184 to 185.6 °C |
| NC(=O)c1ccc2c(c1)CCCN2CCN1CC=C(c2c[nH]c3cc(F)ccc23)CC1 | melting point | 130 to 133 °C |
| CNC(=O)c1ccc2c(c1)CCCN2CCN1CC=C(c2c[nH]c3cc(F)ccc23)CC1 | melting point | 121 to 125 °C |

Now look at this entry.
Entry O=C(NCCO)c1ccc2c(c1)CCCN2CCN1CC=C(c2c[nH]c3cc(F)ccc23)CC1 needs its melting point filled in; supply it.
136 to 140 °C
